Molecular target: recombinant CD73 (Homo sapiens (Human), UniProt P21589)
Sequence (P21589 27-547): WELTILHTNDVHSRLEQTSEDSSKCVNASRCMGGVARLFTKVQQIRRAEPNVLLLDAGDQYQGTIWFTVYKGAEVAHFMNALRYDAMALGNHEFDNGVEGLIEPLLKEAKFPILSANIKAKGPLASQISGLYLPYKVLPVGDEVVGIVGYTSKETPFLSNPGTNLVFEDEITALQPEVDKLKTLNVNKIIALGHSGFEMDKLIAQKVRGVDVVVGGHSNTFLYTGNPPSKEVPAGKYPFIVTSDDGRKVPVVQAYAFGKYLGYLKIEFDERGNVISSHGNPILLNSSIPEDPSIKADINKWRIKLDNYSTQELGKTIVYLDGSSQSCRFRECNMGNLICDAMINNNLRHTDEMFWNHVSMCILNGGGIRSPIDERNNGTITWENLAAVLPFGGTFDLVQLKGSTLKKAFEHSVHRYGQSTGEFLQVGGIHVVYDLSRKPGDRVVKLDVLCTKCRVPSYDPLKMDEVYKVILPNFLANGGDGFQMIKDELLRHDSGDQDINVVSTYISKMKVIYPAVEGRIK
Assay: Assay 2: Inhibition of the CD73 enzyme in vitro (0.05 nM CD73, 1 hour 37° C., Malachite Green)
Type: biochemical
Conditions: 0.05 nM CD73, 50 μM AMP, 1 hour at 37° C.
measured attribute: IC50 (nM)

[[record]]
compound = "C#C[C@@]1(O)[C@@H](COC(Cc2ccccc2)(C(=O)O)C(=O)O)O[C@@H](n2cnc3c(NC4CC4)nc(Cl)nc32)[C@@H]1O"
measured_attribute = "IC50"
result = 1


[1] C#C[C@@]1(O)[C@@H](COC(C(=O)O)C(=O)O)O[C@@H](n2cnc3c(NC)nc(Cl)nc32)[C@@H]1O
[2] C#C[C@@]1(O)[C@@H](COC(Cc2ccccc2)(C(=O)O)C(=O)O)O[C@@H](n2cnc3c(N(C)C(C)C)nc(Cl)nc32)[C@@H]1O
Enquiry: Which record would sort first by descending IC50, 1 or 2 ? To answer, give the label that identifies your chosen option.
Return: 1

[I] C#C[C@@]1(O)[C@@H](COC(Cc2ccccc2)(C(=O)O)C(=O)O)O[C@@H](n2cnc3c(NCc4cccnc4)nc(Cl)nc32)[C@@H]1O
[II] C#C[C@@]1(O)[C@@H](COC(Cc2ccc(N3CCCNC3=O)cc2)(C(=O)O)C(=O)O)O[C@@H](n2cnc3c(N)nc(Cl)nc32)[C@@H]1O
Enquiry: Which record would sort first by descending IC50, I or II ? To answer, give the label that identifies your chosen option.
Return: I
(I: 3 nM, II: 0.17 nM)

[A] C#C[C@@]1(O)[C@@H](COC(Cc2ccccc2)(C(=O)O)C(=O)O)O[C@@H](n2cnc3c(NC4CCOC4)nc(Cl)nc32)[C@@H]1O (stereo partly shown)
[B] C#C[C@@]1(O)[C@@H](CO[C@@](Cc2ccccc2)(C(=O)O)c2cscn2)O[C@@H](n2cnc3c(NC(C)C)nc(Cl)nc32)[C@@H]1O (single isomer, unassigned)
Enquiry: Between A and B , which one has the lower reported IC50 value? To answer, give the label that identifies your chosen option.
Return: A

[P] C#C[C@@]1(O)[C@@H](COC(Cc2ccc(N3CCCN(C)C3=O)cc2)(C(=O)O)C(=O)O)O[C@@H](n2cnc3c(NC)nc(Cl)nc32)[C@@H]1O
[Q] C#C[C@@]1(O)[C@@H](COC(Cc2ccccc2)(C(=O)O)C(=O)O)O[C@@H](n2cnc3c(NCCc4ccccc4)nc(Cl)nc32)[C@@H]1O
Enquiry: Which record would sort first by descending IC50, P or Q ? To answer, give the label that identifies your chosen option.
Return: Q

---

Molecular target: recombinant CD73 (Homo sapiens (Human))
Assay: Assay 2: Inhibition of the CD73 enzyme in vitro (0.05 nM CD73, 1 hour 37° C., Malachite Green)
Assay type: biochemical
Conditions: 0.05 nM CD73, 50 μM AMP, 1 hour at 37° C.
pIC50: −log10 of the molar value.
measured attribute: pIC50

[[record]]
compound = "C#C[C@@]1(O)[C@@H](COC(Cc2ccccc2)(C(=O)O)C(=O)O)O[C@@H](n2cnc3c(NCC(=O)O)nc(Cl)nc32)[C@@H]1O"
study_target = "recombinant CD73 (Homo sapiens (Human))"
measured_attribute = "pIC50"
result = 8.22


[I] C#C[C@@]1(O)[C@@H](COC(Cc2ccccc2)(C(=O)O)C(=O)O)O[C@@H](n2cnc3c(N[C@@H](C)c4ccccc4)nc(Cl)nc32)[C@@H]1O
[II] Nc1nc(Cl)nc2c1ncn2[C@@H]1O[C@H](COC(Cc2ccccc2)(C(=O)O)C(=O)O)[C@](O)(C#CC2CC2)[C@H]1O
Enquiry: Which record would sort first by descending pIC50, I or II ? To answer, give the label that identifies your chosen option.
Return: II
(II: 9.30, I: 9.00)
